# Organism: Rattus norvegicus
# measurementProtocol: Open TG-GATES - Regimen: Single
# Type: toxicity, organism-based, Sprague-Dawley
# Set-up: regimen Single, gender Male, age 6 weeks
# settings: in vivo, po, 0 mg/kg, 6 h, tissue Blood, route gavage, dose level Control
Item-by-item account of RBC

{"columns": ["molecule", "RBC / x10_4/ul"],
 "data": [
  ["CCN(CC)N=O", 631.8],
  ["CC(=O)Nc1ccc2c(c1)Cc1ccccc1-2", 649.8],
  ["O=C(O)COc1nn(Cc2ccccc2)c2ccccc12", 642.4],
  ["CC(CCc1ccccc1)NCC(O)c1ccc(O)c(C(N)=O)c1 (configuration not stated)", 609.8],
  ["CC(=O)N1CCN(c2ccc(OCC3COC(Cn4ccnc4)(c4ccc(Cl)cc4Cl)O3)cc2)CC1 (configuration not stated)", 613.4],
  ["CC[C@@H](CO)NCCN[C@@H](CC)CO", 624.8],
  ["CC(C)Cc1ccc(C(C)C(=O)O)cc1 (configuration not stated)", 627]
]}

* * *

# Species on record: Rattus norvegicus
# measurementProtocol: Open TG-GATES - Regimen: Single
# Assay type: toxicity, organism-based, Sprague-Dawley
# Set-up: regimen Single, gender Male, age 6 weeks
# settings: in vivo, po, 0 mg/kg, 24 h, tissue Plasma, route gavage, dose level Control
metric: AST (IU/L)

{"columns": ["compound", "testResult"],
 "data": [
  ["CCN(CC)N=O", 63.6],
  ["CC(=O)Nc1ccc2c(c1)Cc1ccccc1-2", 69.4],
  ["CC(CCc1ccccc1)NCC(O)c1ccc(O)c(C(N)=O)c1 (configuration not stated)", 75.6],
  ["CC(=O)N1CCN(c2ccc(OCC3COC(Cn4ccnc4)(c4ccc(Cl)cc4Cl)O3)cc2)CC1 (configuration not stated)", 73.2],
  ["CC(C)Cc1ccc(C(C)C(=O)O)cc1 (configuration not stated)", 77.2],
  ["CC[C@@H](CO)NCCN[C@@H](CC)CO", 73],
  ["O=C(O)COc1nn(Cc2ccccc2)c2ccccc12", 67.2]
]}

* * *

# Species on record: Rattus norvegicus
# measurementProtocol: Open TG-GATES - Regimen: Single
# Assay type: toxicity, organism-based, Sprague-Dawley
# Design: regimen Single, gender Male, age 6 weeks
# settings: in vivo, po, 0 mg/kg, 6 h, tissue Liver, route gavage, dose level Control
metric: LIVER (g)

{"columns": ["molecule", "metric", "testResult"],
 "data": [
  ["CC[C@@H](CO)NCCN[C@@H](CC)CO", "LIVER", 10],
  ["O=C(O)COc1nn(Cc2ccccc2)c2ccccc12", "LIVER", 9.4],
  ["CC(=O)N1CCN(c2ccc(OCC3COC(Cn4ccnc4)(c4ccc(Cl)cc4Cl)O3)cc2)CC1 (configuration not stated)", "LIVER", 9.1],
  ["CCN(CC)N=O", "LIVER", 9.9],
  ["CC(CCc1ccccc1)NCC(O)c1ccc(O)c(C(N)=O)c1 (configuration not stated)", "LIVER", 8.9],
  ["CC(C)Cc1ccc(C(C)C(=O)O)cc1 (configuration not stated)", "LIVER", 8.8],
  ["CC(=O)Nc1ccc2c(c1)Cc1ccccc1-2", "LIVER", 9.3]
]}

* * *

# Organism: Rattus norvegicus
# measurementProtocol: Open TG-GATES - Regimen: Single
# Format: toxicity, organism-based, Sprague-Dawley
# Set-up: regimen Single, gender Male, age 6 weeks
# settings: in vivo, po, 0 mg/kg, 3 h, tissue Plasma, route gavage, dose level Control

{"columns": ["compound", "gamma-GTP"],
 "data": [
  ["CC(CCc1ccccc1)NCC(O)c1ccc(O)c(C(N)=O)c1 (configuration not stated)", "1.6 IU/L"],
  ["CC(=O)Nc1ccc2c(c1)Cc1ccccc1-2", "0.8 IU/L"],
  ["O=C(O)COc1nn(Cc2ccccc2)c2ccccc12", "1 IU/L"],
  ["CC(C)Cc1ccc(C(C)C(=O)O)cc1 (configuration not stated)", "1.2 IU/L"],
  ["CCN(CC)N=O", "1 IU/L"],
  ["CC(=O)N1CCN(c2ccc(OCC3COC(Cn4ccnc4)(c4ccc(Cl)cc4Cl)O3)cc2)CC1 (configuration not stated)", "1 IU/L"],
  ["CC[C@@H](CO)NCCN[C@@H](CC)CO", "1.6 IU/L"]
]}

* * *

# Species on record: Rattus norvegicus
# measurementProtocol: Open TG-GATES - Regimen: Single
# Format: toxicity, organism-based, Sprague-Dawley
# Design: regimen Single, gender Male, age 6 weeks
# settings: in vivo, po, 0 mg/kg, 24 h, tissue Plasma, route gavage, dose level Control
Item-by-item account of TBIL

{"columns": ["molecule", "TBIL"],
 "data": [
  ["CC[C@@H](CO)NCCN[C@@H](CC)CO [ETHAMBUTOL]", "0.006 mg/dL"],
  ["CC(CCc1ccccc1)NCC(O)c1ccc(O)c(C(N)=O)c1 (configuration not stated) [LABETALOL]", "0.03 mg/dL"],
  ["CC(C)Cc1ccc(C(C)C(=O)O)cc1 (configuration not stated) [IBUPROFEN]", "0 mg/dL"],
  ["CCN(CC)N=O [N-NITROSODIETHYLAMINE]", "0.1 mg/dL"],
  ["CC(=O)N1CCN(c2ccc(OCC3COC(Cn4ccnc4)(c4ccc(Cl)cc4Cl)O3)cc2)CC1 (configuration not stated) [KETOCONAZOLE]", "0.002 mg/dL"],
  ["O=C(O)COc1nn(Cc2ccccc2)c2ccccc12 [BENDAZAC]", "0.3 mg/dL"],
  ["CC(=O)Nc1ccc2c(c1)Cc1ccccc1-2 [2-ACETYLAMINOFLUORENE]", "0.2 mg/dL"]
]}

* * *

# Organism: Rattus norvegicus
# measurementProtocol: Open TG-GATES - Regimen: Single
# Type: toxicity, organism-based, Sprague-Dawley
# Set-up: regimen Single, gender Male, age 6 weeks
# settings: in vivo, po, 0 mg/kg, 24 h, tissue Plasma, route gavage, dose level Control
metric: Na (meq/L)

{"columns": ["molecule", "metric", "testResult"],
 "data": [
  ["CC(CCc1ccccc1)NCC(O)c1ccc(O)c(C(N)=O)c1 (configuration not stated) [LABETALOL]", "Na", 141.8],
  ["CCN(CC)N=O [N-NITROSODIETHYLAMINE]", "Na", 141],
  ["CC(=O)N1CCN(c2ccc(OCC3COC(Cn4ccnc4)(c4ccc(Cl)cc4Cl)O3)cc2)CC1 (configuration not stated) [KETOCONAZOLE]", "Na", 142.2],
  ["CC(C)Cc1ccc(C(C)C(=O)O)cc1 (configuration not stated) [IBUPROFEN]", "Na", 141.6],
  ["CC[C@@H](CO)NCCN[C@@H](CC)CO [ETHAMBUTOL]", "Na", 142.4],
  ["O=C(O)COc1nn(Cc2ccccc2)c2ccccc12 [BENDAZAC]", "Na", 140.4],
  ["CC(=O)Nc1ccc2c(c1)Cc1ccccc1-2 [2-ACETYLAMINOFLUORENE]", "Na", 140.4]
]}

* * *

Item-by-item account of TP
# Species on record: Rattus norvegicus
# measurementProtocol: Open TG-GATES - Regimen: Daily Repeat
# Assay type: toxicity, organism-based, Sprague-Dawley
# Design: regimen Daily Repeat, gender Male, age 6 weeks
# settings: in vivo, po, 0 mg/kg, 72 h, tissue Plasma, route gavage, dose level Control, time 3 day

{"columns": ["molecule", "measurementUnits", "TP"],
 "data": [
  ["CC[C@@H](CO)NCCN[C@@H](CC)CO", "g/dL", 5.7],
  ["CCN(CC)N=O", "g/dL", 5.6],
  ["O=C(O)COc1nn(Cc2ccccc2)c2ccccc12", "g/dL", 5.7],
  ["CC(CCc1ccccc1)NCC(O)c1ccc(O)c(C(N)=O)c1 (stereo not drawn)", "g/dL", 5.8],
  ["CC(N)=O [ACETAMIDE]", "g/dL", 5.6],
  ["CC(=O)N1CCN(c2ccc(OCC3COC(Cn4ccnc4)(c4ccc(Cl)cc4Cl)O3)cc2)CC1 (stereo not drawn)", "g/dL", 5.6],
  ["CC(C)Cc1ccc(C(C)C(=O)O)cc1 (stereo not drawn)", "g/dL", 5.5],
  ["CC(=O)Nc1ccc2c(c1)Cc1ccccc1-2", "g/dL", 5.8]
]}

* * *

# Species: Rattus norvegicus
# measurementProtocol: Open TG-GATES - Regimen: Daily Repeat
# Assay type: toxicity, organism-based, Sprague-Dawley
# Set-up: regimen Daily Repeat, gender Male, age 6 weeks
# settings: in vivo, po, 0 mg/kg, 72 h, tissue Plasma, route gavage, dose level Control, time 3 day
Item-by-item account of IP
metric: IP (mg/dL)

{"columns": ["compound", "measurementUnits", "testResult"],
 "data": [
  ["CC(N)=O [ACETAMIDE]", "mg/dL", 6.7],
  ["CC(=O)N1CCN(c2ccc(OCC3COC(Cn4ccnc4)(c4ccc(Cl)cc4Cl)O3)cc2)CC1 (stereo not drawn) [KETOCONAZOLE]", "mg/dL", 5.9],
  ["O=C(O)COc1nn(Cc2ccccc2)c2ccccc12 [BENDAZAC]", "mg/dL", 7.7],
  ["CC[C@@H](CO)NCCN[C@@H](CC)CO [ETHAMBUTOL]", "mg/dL", 7.6],
  ["CCN(CC)N=O [N-NITROSODIETHYLAMINE]", "mg/dL", 8],
  ["CC(C)Cc1ccc(C(C)C(=O)O)cc1 (stereo not drawn) [IBUPROFEN]", "mg/dL", 7.7],
  ["CC(CCc1ccccc1)NCC(O)c1ccc(O)c(C(N)=O)c1 (stereo not drawn) [LABETALOL]", "mg/dL", 7.8],
  ["CC(=O)Nc1ccc2c(c1)Cc1ccccc1-2 [2-ACETYLAMINOFLUORENE]", "mg/dL", 8]
]}
